target.desc: T1, recombinant full-length Tau protein, longest isoform (Tau 2N4R) (human, UniProt P10636-8 1-441, biotinylated with NHS-biotin for SPR; 15N-labelled for NMR)
T1 construct: range 1-441; Expressed in E. coli from pET15b-Tau; also called biotinylated-Tau; 15N-Tau
method.summary: SPR (Biacore T200), single-cycle kinetics, biotinylated Tau on streptavidin chip, VHH injected 0.125-2 µM
measure.name: koff
State the value, then name its unit.

| binder | measure.name | observed.value |
| --- | --- | --- |
| VHH Mut3 (VHH, Variant of Z70; also called VH Mut3) VHH: EVQLQASGGVFVQSGGSLRLSCAASGATSTFDGMGWFRQAPGKEKEFVSAISYEQGSYTYYADSVKGRFTISRDNSKNMVYLQMNSLRAEDTATYYCAPAYEGDLYAFDSYGGQGTQVTVSS | koff | 0.0021 s⁻¹ |

In: Give its koff value. Item: VHH Mut20 (VHH, Variant of Z70; also called VH Mut20) VHH: EVQLQASGGVFVQSGGSLRLSCAASGATSTFDGMGWFRQAPGKEKEFVSAISYEQGSYTYYADSVKGRFTISRDNSKNMVYLQMNSLRAEDTATYYCAPAYEGDLYAFDSYGEQGTQVTVSS
Out: 0.00089 s⁻¹
